Test system: 873145-292-R-J1-PDC complex spheroid viability
assayProtocol: Anticancer human tumor 873145-292-R-J1-PDC patient-derived renal clear cell carcinoma cell line growth inhibition [POLQ]
experimentalContext: second compound 10 µM; first compound 1 µM; stronger effect = lower value
Protocol: Multicellular complex tumor spheroid response to Polymerase (POL) inhibitors (novobiocin, ART-558, RP6685) in combination with a variety of drugs and investigational agents in selected tumor cell lines The POL inhibitors (novobiocin, ART-558, and RP6685) were evaluated both individually and in combination with standard of care and investigational anticancer small molecules within a complex spheroid model of solid tumors. . […]
parameter: viability, T/C (%)

INSERT INTO assay_data (compound, experimentalsystem, quantitativereadout) VALUES
  ('C=CC(=O)N1CCN(c2nc(=O)n(-c3c(C)ccnc3C(C)C)c3nc(-c4c(O)cccc4F)c(F)cc23)C(C)C1 (stereo unspecified) + COC1C(OC(N)=O)C(O)C(Oc2ccc3c(O)c(NC(=O)c4ccc(O)c(CC=C(C)C)c4)c(=O)oc3c2C)OC1(C)C', '873145-292-R-J1-PDC complex spheroid viability', 116),
  ('CNCc1ccc(-c2[nH]c3cc(F)cc4c3c2CCNC4=O)cc1 + Nc1ccc(C#CCN(C(=O)Cc2ncc(C(F)(F)F)cc2C(F)(F)F)c2ccc(F)cc2)nn1', '873145-292-R-J1-PDC complex spheroid viability', 100),
  ('CC1COCCN1c1cc(C2(O)CC3CCC(C2)O3)c2cnn(-c3ccn[nH]3)c2n1 (stereo unspecified) + Cc1cccc(N(C)C(=O)C2C(O)CCN2c2nc(C)cc(C(F)(F)F)c2C#N)c1', '873145-292-R-J1-PDC complex spheroid viability', 38.4),
  ('C#Cc1c(F)ccc2cc(O)cc(-c3ncc4c(N5CC6CCC(C5)N6)nc(OCC56CCCN5CC(F)C6)nc4c3F)c12 (stereo unspecified) + COC1C(OC(N)=O)C(O)C(Oc2ccc3c(O)c(NC(=O)c4ccc(O)c(CC=C(C)C)c4)c(=O)oc3c2C)OC1(C)C', '873145-292-R-J1-PDC complex spheroid viability', 86.3),
  ('CNCc1ccc(-c2[nH]c3cc(F)cc4c3c2CCNC4=O)cc1 + COC1C(OC(N)=O)C(O)C(Oc2ccc3c(O)c(NC(=O)c4ccc(O)c(CC=C(C)C)c4)c(=O)oc3c2C)OC1(C)C', '873145-292-R-J1-PDC complex spheroid viability', 94.7),
  ('O=C(c1cc(Cc2n[nH]c(=O)c3ccccc23)ccc1F)N1CCN(C(=O)C2CC2)CC1 + Cc1cccc(N(C)C(=O)C2C(O)CCN2c2nc(C)cc(C(F)(F)F)c2C#N)c1', '873145-292-R-J1-PDC complex spheroid viability', 102),
  ('Nc1ccn(C2OC(CO)C(O)C2(F)F)c(=O)n1 (stereo unspecified) + Nc1ccc(C#CCN(C(=O)Cc2ncc(C(F)(F)F)cc2C(F)(F)F)c2ccc(F)cc2)nn1', '873145-292-R-J1-PDC complex spheroid viability', 62.1),
  ('CC1COCCN1c1cc(-c2ccnn2C)c2ccnc(-c3ccn[nH]3)c2n1 (stereo unspecified) + COC1C(OC(N)=O)C(O)C(Oc2ccc3c(O)c(NC(=O)c4ccc(O)c(CC=C(C)C)c4)c(=O)oc3c2C)OC1(C)C', '873145-292-R-J1-PDC complex spheroid viability', 47.6),
  ('Nc1ccn(C2OC(CO)C(O)C2(F)F)c(=O)n1 (stereo unspecified) + Cc1cccc(N(C)C(=O)C2C(O)CCN2c2nc(C)cc(C(F)(F)F)c2C#N)c1', '873145-292-R-J1-PDC complex spheroid viability', 58.5),
  ('C=CCn1c(=O)c2cnc(Nc3ccc(N4CCN(C)CC4)cc3)nc2n1-c1cccc(C(C)(C)O)n1 + Cc1cccc(N(C)C(=O)C2C(O)CCN2c2nc(C)cc(C(F)(F)F)c2C#N)c1', '873145-292-R-J1-PDC complex spheroid viability', 75.3),
  ('COc1cccc2c1C(=O)c1c(O)c3c(c(O)c1C2=O)CC(O)(C(=O)CO)CC3OC1CC(N)C(O)C(C)O1 (stereo unspecified) + COC1C(OC(N)=O)C(O)C(Oc2ccc3c(O)c(NC(=O)c4ccc(O)c(CC=C(C)C)c4)c(=O)oc3c2C)OC1(C)C', '873145-292-R-J1-PDC complex spheroid viability', 74.4);

====

Test system: 873145-292-R-J1-PDC complex spheroid viability
assayProtocol: Anticancer human tumor 873145-292-R-J1-PDC cell line growth inhibition [POLQ];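 note: spheroids exposed to compounds for 7 days before viability readout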
experimentalContext: curve of first compound; second compound 0.1 µM
pIC50: −log10 of the molar value.
Item-by-item account of pIC50
parameter: pIC50

INSERT INTO measurements (compound, result) VALUES
  ('CCCS(=O)(=O)Nc1ccc(F)c(C(=O)c2c[nH]c3ncc(-c4ccc(Cl)cc4)cc23)c1F + Cc1cccc(N(C)C(=O)C2C(O)CCN2c2nc(C)cc(C(F)(F)F)c2C#N)c1', '< 5.00'),
  ('O=C(Nc1ccc(O)c(NS(=O)(=O)c2ccc(F)cc2)c1)c1ccc(-c2ccccc2)cc1 + COC1C(OC(N)=O)C(O)C(Oc2ccc3c(O)c(NC(=O)c4ccc(O)c(CC=C(C)C)c4)c(=O)oc3c2C)OC1(C)C', '< 5.00'),
  ('CC(C)n1c(=O)n(C)c2cnc3cc(F)c(-c4ccc(OCCCN5CCCCC5)nc4)cc3c21 + Nc1ccc(C#CCN(C(=O)Cc2ncc(C(F)(F)F)cc2C(F)(F)F)c2ccc(F)cc2)nn1', '< 5.00');

====

Below, each entry is listed with its recorded viability, T/C.
System: 873145-292-R-J1-PDC complex spheroid viability
assayProtocol: Anticancer human tumor 873145-292-R-J1-PDC cell line growth inhibition [POLQ];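 note: spheroids exposed to compounds for 7 days before viability readout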;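 for viability, T/C: luminescence signal used as surrogate for viable cell content; 100% = DMSO vehicle control viability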
experimentalContext: second compound 0.316 µM; first compound 0.316 µM; stronger effect = lower value
parameter: viability, T/C (%)

INSERT INTO assay_data (compound, experimentalsystem, quantitativereadout) VALUES
  ('O=c1[nH]cc(F)c(=O)[nH]1 + Cc1cccc(N(C)C(=O)C2C(O)CCN2c2nc(C)cc(C(F)(F)F)c2C#N)c1', '873145-292-R-J1-PDC complex spheroid viability', 91.4),
  ('CCCS(=O)(=O)Nc1ccc(F)c(C(=O)c2c[nH]c3ncc(-c4ccc(Cl)cc4)cc23)c1F + Nc1ccc(C#CCN(C(=O)Cc2ncc(C(F)(F)F)cc2C(F)(F)F)c2ccc(F)cc2)nn1', '873145-292-R-J1-PDC complex spheroid viability', 93.3),
  ('COc1ccc([C@@H](O)c2cc(-c3ncnc4cc(N5CCOCC5)ccc34)c(F)cc2Cl)nn1 + COC1C(OC(N)=O)C(O)C(Oc2ccc3c(O)c(NC(=O)c4ccc(O)c(CC=C(C)C)c4)c(=O)oc3c2C)OC1(C)C', '873145-292-R-J1-PDC complex spheroid viability', 76.1),
  ('COc1cccc2c1C(=O)c1c(O)c3c(c(O)c1C2=O)CC(O)(C(=O)CO)CC3OC1CC(N)C(O)C(C)O1 (stereo not given) + Cc1cccc(N(C)C(=O)C2C(O)CCN2c2nc(C)cc(C(F)(F)F)c2C#N)c1', '873145-292-R-J1-PDC complex spheroid viability', 72.1),
  ('O=C(c1cc(Cc2n[nH]c(=O)c3ccccc23)ccc1F)N1CCN(C(=O)C2CC2)CC1 + COC1C(OC(N)=O)C(O)C(Oc2ccc3c(O)c(NC(=O)c4ccc(O)c(CC=C(C)C)c4)c(=O)oc3c2C)OC1(C)C', '873145-292-R-J1-PDC complex spheroid viability', 93.2);

====

System: 873145-292-R-J1-PDC complex spheroid viability
assayProtocol: Anticancer human tumor 873145-292-R-J1-PDC cell line growth inhibition [POLQ];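 note: spheroids exposed to compounds for 7 days before viability readout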
experimentalContext: compound alone; run of 01/08/2024
pIC50: −log10 of the molar value.
Below is a list of entries, each paired with its recorded pIC50 value.
parameter: pIC50

INSERT INTO assay_data (molecule, experimentalsystem, result) VALUES
  ('Cc1cccc(N(C)C(=O)C2C(O)CCN2c2nc(C)cc(C(F)(F)F)c2C#N)c1 (configuration not stated)', '873145-292-R-J1-PDC complex spheroid viability', '< 5.00'),
  ('COC1C(OC(N)=O)C(O)C(Oc2ccc3c(O)c(NC(=O)c4ccc(O)c(CC=C(C)C)c4)c(=O)oc3c2C)OC1(C)C (configuration not stated)', '873145-292-R-J1-PDC complex spheroid viability', '< 5.00');

====

Test system: 873145-292-R-J1-PDC complex spheroid viability
assayProtocol: Anticancer human tumor 873145-292-R-J1-PDC cell line growth inhibition [POLQ]; active = viability on the fitted dose curve at most 10% of control; inactive = the rest;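 note: spheroids exposed to compounds for 7 days before viability readout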
experimentalContext: second compound 3.16 µM; first compound 3.16 µM
Classes used: class 1 = active, class 0 = inactive

INSERT INTO assay_data (compound, discretelabel) VALUES
  ('O=C(c1cc(Cc2n[nH]c(=O)c3ccccc23)ccc1F)N1CCN(C(=O)C2CC2)CC1 + COC1C(OC(N)=O)C(O)C(Oc2ccc3c(O)c(NC(=O)c4ccc(O)c(CC=C(C)C)c4)c(=O)oc3c2C)OC1(C)C', 'class 0'),
  ('C#Cc1c(F)ccc2cc(O)cc(-c3ncc4c(N5CC6CCC(C5)N6)nc(OCC56CCCN5CC(F)C6)nc4c3F)c12 (stereo not given) + Nc1ccc(C#CCN(C(=O)Cc2ncc(C(F)(F)F)cc2C(F)(F)F)c2ccc(F)cc2)nn1', 'class 0'),
  ('COc1cccc2c1C(=O)c1c(O)c3c(c(O)c1C2=O)CC(O)(C(=O)CO)CC3OC1CC(N)C(O)C(C)O1 (stereo not given) + Nc1ccc(C#CCN(C(=O)Cc2ncc(C(F)(F)F)cc2C(F)(F)F)c2ccc(F)cc2)nn1', 'class 1'),
  ('CNCc1ccc(-c2[nH]c3cc(F)cc4c3c2CCNC4=O)cc1 + Nc1ccc(C#CCN(C(=O)Cc2ncc(C(F)(F)F)cc2C(F)(F)F)c2ccc(F)cc2)nn1', 'class 0'),
  ('CC1COCCN1c1cc(-c2ccnn2C)c2ccnc(-c3ccn[nH]3)c2n1 (stereo not given) + Cc1cccc(N(C)C(=O)C2C(O)CCN2c2nc(C)cc(C(F)(F)F)c2C#N)c1', 'class 0');
